Ref: ChEMBL document CHEMBL1201862

- System: TK-10
- procedure-details: NCI tumour cell line growth inhibition, 48 h
Calls of active or inactive are those of the source. No stated cut-off is given here; in the data, active = GI50 up to about 1.1 µM and inactive = higher.
readout-kind: GI50

Previously resolved entries follow.
INSERT INTO measurements (compound, endpoint_result) VALUES
  ('C/C(=N/NC(=S)N1CCCCC1)c1cccc(/C(C)=N\NC(=S)N2CCCCC2)n1', '1.8 µM (inactive)'),
  ('CC(C)[C@](O)(C(=O)OCC1=CC[N+]2([O-])CC[C@@H](O)[C@@H]12)[C@H](C)O (stereo partly specified) [INDICINE N-OXIDE]', '> 10000 µM (inactive)'),
  ('CCC1=NC(N/N=C/c2ccco2)=N/C1=C\c1ccco1', '> 100 µM (inactive)');

Give recorded GI50 with TK-10 for the following compound: Cn1c2ccccc2c(=O)c2c([N+](=O)[O-])ccc(NCCN)c21
14.7 µM (inactive)

// same read-out, input: CCOC(=O)c1csc(NC(=O)C(C)N2CCOCC2)n1 (stereo unspecified)
> 100 µM (inactive)

// same read-out, input: O=C1CC(c2ccccc2)C2(C(=O)NC(=S)NC2=O)C(c2ccccc2)C1 (stereo unspecified)
> 75 µM (inactive)

What do you get for Cc1ccc(NCC(=O)N2CC(=O)Nc3ccccc32)cc1 ?
> 100 µM (inactive)

// query: Clc1ccc2nc(-c3ccccc3)nc(Cl)c2c1
21.7 µM (inactive)

---

# GI50 per entry
- System: SK-MEL-5
- procedure-details: NCI tumour cell line growth inhibition, 48 h
The source made the active and inactive calls. Cut-off read from the data, not from the text of the source: active = GI50 up to about 1.1 µM and inactive = higher.

Example entries and their recorded answers appear below.
INSERT INTO results (compound, readout_kind, endpoint_result) VALUES
  ('CC(C)(C=O)CC(C#N)/C(=N\NC(N)=O)C(=O)Nc1ccccc1C(N)=O (stereo unspecified)', 'GI50', '> 100 µM (inactive)'),
  ('CC1=NNC(=O)C1C1C(=O)NN=C(c2c[nH]c3ccccc23)C1Br (stereo unspecified)', 'GI50', '37.8 µM (inactive)');

Next, consider the following compound.
Can you share its GI50? I mean this compound: OCCOCn1cc(Cn2ncc3c(SCc4ccccc4)ncnc32)nn1
30 µM (inactive)

---

- Test system: RPMI-8226
- procedure-details: NCI tumour cell line growth inhibition, 48 h
Calls of active or inactive are those of the source. Cut-off read from the data, not from the text of the source: active = GI50 up to about 1.1 µM and inactive = higher.
I would appreciate it if you answered using one of these outcomes: active, inactive

Here are 4 molecules together with their reported answers.
INSERT INTO results (molecule, assigned_category) VALUES
  ('O=C(Nc1nc(C23CC4CC(CC(C4)C2)C3)cs1)c1cc2c(ccc3ccccc32)oc1=O', 'inactive'),
  ('Nc1nc2c(ncn2C2C=CC(COS(N)(=O)=O)C2)c(=O)[nH]1 (stereo unspecified)', 'inactive'),
  ('NC1(P(=O)(O)O)CCCCC1', 'inactive'),
  ('C1=CC2C(C3CN(c4ccccc4)N=C13)C1C3C4C=CC21C=CC43 (stereo unspecified)', 'inactive');

I would be grateful if you could indicate the recorded call for C=CCOC(C)(C)C1=CCC(C)CC1 (stereo unspecified) .
inactive

Param item: CC(=O)NC1=C(NCCCl)C(=O)c2ccccc2C1=O
inactive

Now try CC(C)(C)c1cc(C2NC(=O)NC2=O)cc(C(C)(C)C)c1O (stereo unspecified) .
inactive

And then COc1c2c3c4c(c(OC)c(=O)c5c(O)cc(OC)c(c6c(OC)cc(O)c(c1=O)c63)c54)C(C(C)O)C2C(C)O (stereo unspecified) , what is it?
active
